system: human cervical adenocarcinoma HeLa; assay: MTT cell viability assay, HeLa; type: cell-based; conditions: 48 h incubation, MTT
Catalogue of IC50 readings, one per entry.
Recorded Metric: IC50 (µM)

1) CC(=O)O[C@]1(C(C)=O)CC[C@H]2[C@@H]3C=C(C)C4=CC(=O)CC[C@]4(C)[C@H]3CC[C@@]21C [MA, megestrol acetate] : 32.9
2) CCCC(=O)OC1C=C2C(C)=CC3C(CCC4(C)C3CCC4(OC(C)=O)C(C)=O)C2(C)CC1 (stereo not drawn) : 18.3
3) CC(=O)OC1(C(C)=O)CCC2C3C=C(C)C4=CC(O)CCC4(C)C3CCC21C (stereo not drawn) : 31.3

###

test system: human embryonic lung fibroblasts Wi-38; assay: MTT cell viability assay, Wi-38 (non-tumor); type: cell-based; conditions: 48 h incubation, noncancerous cells
Catalogue of IC50 readings, one per entry.
Recorded Metric: IC50 (µM)

1) C[C@]12CCC3=C4CCC(=O)C=C4CC[C@H]3[C@@H]1CC[C@@]2(O)CC#N : 546
2) CCCC(=O)OC1C=C2C(C)=CC3C(CCC4(C)C3CCC4(OC(C)=O)C(C)=O)C2(C)CC1 (stereo not shown) : 98.9
